Tested on: Polygonum convolvulus (POLCO)
Test: B2 Post-Emergence Efficacy - Test 2
Type: in vivo
Conditions: 500 g/Ha, 15 days after application, 0-100 scale
measure: Herbicidal activity POLCO
Please reply with the number alone, leaving off any unit.

Some solved entries appear below for comparison.
INSERT INTO assay_data (compound_string, measure, measurement) VALUES
  ('Cc1nn(C)c(=O)c(-c2c(F)ccc(Cl)c2CCc2ccc(C#N)cc2)c1O', 'Herbicidal activity POLCO', 100),
  ('Cc1nn(C)c(=O)c(-c2c(F)ccc(Cl)c2CCc2ccc(F)cc2)c1O', 'Herbicidal activity POLCO', 90),
  ('Cc1nn(C)c(=O)c(-c2c(F)ccc(Cl)c2CCc2ccc(C(F)(F)F)nc2)c1O', 'Herbicidal activity POLCO', 100),
  ('Cc1nn(C)c(=O)c(-c2c(F)ccc(Cl)c2CCc2ccccc2C(F)(F)F)c1O', 'Herbicidal activity POLCO', 100);

// below: Herbicidal activity POLCO requested for another compound
[ask] Query (compound): Cc1nn(C)c(=O)c(-c2c(F)ccc(Cl)c2CCc2ccc(F)cc2)c1OC(=O)C(C)C ; field requested: Herbicidal activity POLCO
[reply] 90
